assayed-target: Cytochrome P450 2C9 (Homo sapiens, UniProt P11712)
Sequence (P11712 whole entry): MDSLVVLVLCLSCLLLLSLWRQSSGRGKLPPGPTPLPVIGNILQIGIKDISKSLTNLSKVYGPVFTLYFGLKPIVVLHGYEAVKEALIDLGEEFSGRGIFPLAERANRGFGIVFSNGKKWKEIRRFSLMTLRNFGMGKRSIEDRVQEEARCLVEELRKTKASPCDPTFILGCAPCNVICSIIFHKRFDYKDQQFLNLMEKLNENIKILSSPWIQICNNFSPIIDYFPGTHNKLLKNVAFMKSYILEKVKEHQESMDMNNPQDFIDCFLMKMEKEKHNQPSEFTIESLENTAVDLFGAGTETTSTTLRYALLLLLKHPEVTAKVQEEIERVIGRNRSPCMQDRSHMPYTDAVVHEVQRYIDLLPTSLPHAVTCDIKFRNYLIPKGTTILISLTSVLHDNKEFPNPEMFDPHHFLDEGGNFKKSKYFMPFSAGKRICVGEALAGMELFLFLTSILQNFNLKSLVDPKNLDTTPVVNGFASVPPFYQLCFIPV
pIC50: −log10 of the molar value.
Assignment: determine reported pIC50 for the given compounds.

Recorded pIC50 (compound CC(C)Oc1ncc(-c2nc(-c3cccc4c3OCCNC4CCCC(=O)O)no2)cc1Cl (single isomer, unassigned; enantiomer 1) ): < 4.30

Recorded pIC50 (compound CC(C)Oc1ccc(-c2nc(-c3cccc4c3cnn4CCC(=O)[O-])no2)cc1Cl.[Na+] ): 5.15

Recorded pIC50 (compound CC(C)Oc1ccc(-c2nc(-c3ccc4c(c3)CCN(CCCC(=O)O)CC4)no2)cc1C#N ): < 4.30

====

pIC50: −log10 of the molar value.
Assignment: determine reported pIC50 for the given compounds.

// returns pIC50 for CC(C)Oc1ccc(-c2nc(-c3ccc4c(c3)CCN(CCCC(=O)O)CC4)no2)cc1C#N with Cytochrome P450 2D6 (Homo sapiens, UniProt P10635); value = < 4.30

// returns pIC50 for CC(C)Oc1ccc(-c2nc(-c3cccc4c3cnn4CCC(=O)[O-])no2)cc1Cl.[Na+] with Cytochrome P450 2D6 (Homo sapiens, UniProt P10635); value = < 4.30

// returns pIC50 for CC(C)Oc1ncc(-c2nc(-c3cccc4c3OCCNC4CCCC(=O)O)no2)cc1Cl (single isomer, unassigned; enantiomer 1) with Cytochrome P450 2D6 (Homo sapiens, UniProt P10635); value = < 4.30

====

assayed-target: Sphingosine 1-phosphate receptor 3 (Homo sapiens, UniProt Q99500)
Sequence (Q99500 whole entry): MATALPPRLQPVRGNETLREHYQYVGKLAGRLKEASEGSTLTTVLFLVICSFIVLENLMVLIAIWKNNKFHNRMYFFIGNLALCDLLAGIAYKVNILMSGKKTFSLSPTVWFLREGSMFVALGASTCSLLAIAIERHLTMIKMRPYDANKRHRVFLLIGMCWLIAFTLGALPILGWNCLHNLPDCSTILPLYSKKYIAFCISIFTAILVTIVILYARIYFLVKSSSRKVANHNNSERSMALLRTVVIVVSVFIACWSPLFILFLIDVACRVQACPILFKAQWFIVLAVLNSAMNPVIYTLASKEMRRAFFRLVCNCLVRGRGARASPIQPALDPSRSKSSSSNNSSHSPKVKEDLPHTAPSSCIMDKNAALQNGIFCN
method-summary: Agonist activity at human S1P3R expressed in RBL membranes assessed as [35S]GTPgammaS binding after 30 mins
recorded-metric: pEC50
API: returns pEC50 as number; meaning -log10 of concentration in mol/L.

Recorded pEC50 (compound CC(C)Oc1ncc(-c2nc(-c3cccc4c3OCCNC4CCCC(=O)O)no2)cc1Cl (single isomer, unassigned; enantiomer 1) ): 4.70

Recorded pEC50 (compound CC(C)Oc1ccc(-c2nc(-c3ccc4c(c3)CNCCO4)no2)cc1Cl ): 4.80

Recorded pEC50 (compound CC(C)Oc1ccc(-c2nc(-c3ccc4c(c3)CCN(CCC(=O)O)CC4)no2)cc1Cl ): 5.00

Recorded pEC50 (compound CC(C)Oc1ccc(-c2nc(-c3cccc4c3CCNCC4)no2)cc1C#N ): 5.10

Recorded pEC50 (compound CC(C)Oc1ccc(-c2nc(-c3ccc4c(c3)CCN(CC(=O)O)CC4)no2)cc1C#N ): 5.70

====

method-summary: Chromatographic hydrophobicity index, log D of the compound at pH 7.4
Assay type: physicochemical
measurement-conditions: buffer
recorded-metric: chromatographic logD
Lab note: jot down the number only; don't add units.

Recorded chromatographic logD (molecule CC(C)Oc1ccc(-c2nc(-c3cccc4c3CCNC4CC(=O)O)no2)cc1Cl (configuration not stated) ): 2.02

Recorded chromatographic logD (molecule CC(C)Oc1ccc(-c2nc(-c3cccc4c3CCNC4CC(=O)O)no2)cc1C#N (configuration not stated) ): 1.58

====

method-summary: Volume of distribution at steady state in Beagle dog at 1 mg/kg, iv or 2 mg/kg, po using DMSO/10%(w/v) Kleptose, 0.9% saline(aq) (2%/98%)
Type: ADME, organism-based, Canis lupus familiaris
measurement-conditions: beagle, in vivo, read-out: Vdss
recorded-metric: Vd (L/kg)
Quick reminder: number only, in L/kg, skip the unit.

Recorded Vd (compound CC(C)Oc1ccc(-c2nc(-c3ccc4c(c3)CCN(CCCC(=O)O)CC4)no2)cc1C#N ): 1.6

Recorded Vd (compound CC(C)Oc1ncc(-c2nc(-c3cccc4c3OCCNC4CCCC(=O)O)no2)cc1Cl (stereo in doubt; 31b) ): 0.9

Recorded Vd (compound CC(C)Oc1ccc(-c2nc(-c3cccc4c3OCCN(CCCC(=O)O)C4)no2)cc1Cl ): 1

Recorded Vd (compound CC(C)Oc1ccc(-c2nc(-c3cccc4c3cnn4CCC(=O)[O-])no2)cc1Cl.[Na+] ): 1
